Source of measurements: paper PMC7076710

- measurement target: NKX2-5 transcriptional activity (Mus musculus, UniProt P42582)
- Construct: expressed in transfected cells; host or cells: COS-1
- Sequence (P42582 whole entry): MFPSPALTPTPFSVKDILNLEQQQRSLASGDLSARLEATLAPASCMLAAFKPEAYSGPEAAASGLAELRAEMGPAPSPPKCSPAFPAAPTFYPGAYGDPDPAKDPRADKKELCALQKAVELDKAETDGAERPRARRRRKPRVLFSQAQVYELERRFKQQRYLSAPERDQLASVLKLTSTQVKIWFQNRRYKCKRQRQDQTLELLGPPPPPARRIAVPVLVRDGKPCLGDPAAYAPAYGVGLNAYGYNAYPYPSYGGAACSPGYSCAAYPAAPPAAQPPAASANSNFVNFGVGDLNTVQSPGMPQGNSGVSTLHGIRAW
- assay protocol: NKX2-5 luciferase reporter assay (3xNKE reporter, COS-1 cells)
- Assay type: cell-based
- condition: COS-1; 3 µM; luciferase reporter activity relative to control; read-out: NKX.3µM
Form field: activity at 3 µM (one value per entry).

| compound | activity at 3 µM, % |
| --- | --- |
| CCN(CC)c1ccc(/C=N/c2c(-c3ccccc3)noc2C)c(O)c1 | 99.9 |
| CCC(OC)c1ccc(OCc2c(-c3ccccc3)noc2C)cc1 (racemic) [Compound 34e] | 104 |
| COc1ccc(-c2cc(NC(=O)c3ccc(C(C)(C)C)cc3)n[nH]2)cc1 | 74.8 |
| C=CCN(Cc1ccc(N(CC)CC)cc1)c1c(-c2ccccc2)noc1C [Compound 30b] | 97.2 |
| CCN(c1ccc(NC(=O)c2c(-c3ccccc3)noc2C)cc1)C(C)C | 55.3 |
| CCN(CC)c1ccc(CNc2c(-c3ccccc3)noc2C)cc1 | 99 |
| CCN(CC)c1ccc(NC(=O)c2c[nH]nc2-c2ccccc2)cc1 | 101 |
| Cc1onc(-c2ccccc2)c1C(=O)Nc1ccc(OCc2ccccc2)cc1 | 84.9 |
| Cc1onc(-c2ccccc2)c1COc1ccc(C(=O)OCCC#N)cc1 [Compound 35a] | 39.5 |
| CCN(CC)c1ccc(NC(=O)c2c(C)noc2-c2cc(C)on2)cc1 | 106 |
| CCN(CC)c1ccc(NC(=O)c2csc(C)c2-c2ccccc2)cc1 [Compound 47t] | 55.2 |
| COc1ccc(-c2cc(N)nn2C(=O)c2c(-c3ccccc3)noc2C)cc1 | 88 |
| CCN(CC)c1ccc(NC(=O)c2c(-c3ccccc3)nnn2CCc2ccccc2)cc1 | 76 |
| CCN(CC)c1ccc(NC(=O)c2cnc3ncccn23)cc1 [Compound 47aa] | 112 |
| CC(=O)COC(=O)c1ccc(OCc2c(-c3ccccc3)noc2C)cc1 [Compound 35d] | 56.8 |
| CC(=O)N(Cc1ccc(N(C)C)cc1)c1c(-c2ccccc2)noc1C | 62.1 |
| Cc1onc(-c2ccccc2)c1C(=O)Nc1ccc(C#C[Si](C)(C)C)cc1 | 98.2 |
| CCN(CC)c1ccc(NC(=O)c2cnoc2-c2ccccc2)cc1 [Compound 47d] | 56.3 |
| CCN(CC)c1ccc(NC(=O)c2c(-c3ccncc3)noc2C)cc1 [Compound 39c] | 100 |
